Reported melting point by item:

compound	melting point
CCC12CC3CC(CC(Br)(C3)C1)C2	23 to 24 °C
N#Cc1cnc(N2CCCCC2)nc1N	220 to 222 °C
Cc1ccc(CCl)cc1[N+](=O)[O-]	46 to 50 °C

Moving on to another compound below.
Report melting point, nothing else, for this compound: NC(=O)c1cccnc1Sc1ccc(Cl)cc1
209 to 211 °C

----------
Reported melting point by item:
Just the number in °C, nothing appended.

compound	melting point, °C
C=CCN(CC=C)C(SC)=C(C#N)C(N)=O	110
O=C(CCCCC(=O)NCCCC(=O)ON1C(=O)CCC1=O)NCCCC(=O)ON1C(=O)CCC1=O	145
Cc1ccc(C(O)C2C(=O)N(c3ccccc3)N=C2C(F)(F)F)cc1 (centres undefined)	257
OC12CCCCCC1c1ccccc12 (centres undefined)	100

Report melting point, nothing else, for this compound: O=[N+]([O-])C=Cc1ccccc1Cl
48

Report melting point, nothing else, for this compound: ClC1(Cl)CCCCC1
-47

Report melting point, nothing else, for this compound: CN(C)c1ccc(/C=C(/C#N)c2nc(-c3ccc(Cl)cc3)cs2)cc1
133
